Organism: Oryctolagus cuniculus
Experiment: In vitro inhibition of iron-dependent peroxidation of rabbit brain vesicular membrane lipids
Type: functional
Conditions: Oryctolagus cuniculus; read-out: MIC
MEASUREMENT_KIND: MIC (µM)

Below: 2 molecules and their reported MIC.
>  <SMILES_STR>
OCCN1CCN(CCOc2ccc3c(c2)Nc2ccccc2S3)CC1

>  <MIC / µM>
0.068

$$$$
>  <SMILES_STR>
OCCN1CCN(CCCc2ccc3c(c2)Nc2ccccc2S3)CC1

>  <MIC / µM>
0.17

$$$$

P = CN(C)CCOc1ccc2c(c1C(=O)N(C)C)Nc1ccccc1S2
Q = CN(C)CCOc1ccc2c(c1)N(C)c1ccccc1S2
Hi there, can you help? I need to know whether P or Q has lower measured MIC. Respond with the label that goes with your answer.
P

1 = CN(C)CCOc1ccc2c(c1)Sc1ccccc1N2
2 = CN(C)CCCOc1ccc2c(c1)Sc1ccccc1N2
3 = COc1ccc2c(c1C(=O)NCCN(C)C)Nc1ccccc1S2
Hey, can you sort those molecules up there by MIC, smallest first? Enter labels, ranked according to the request.
1, 2, 3

I = CN(C)CCCN1c2ccccc2Sc2ccc(Cl)cc21
II = CN(C)CCCOc1ccc2c(c1)Nc1ccccc1S2
Hi there, can you help? I need to know whether I or II has lower measured MIC. Respond with the label that goes with your answer.
II
(II: 0.14 µM, I: 10 µM)
